For each record, write down the corresponding Papp A→B at 90 min.
measurementDescription: in vitro
Format: in vitro ADME
testParameters: human, Caco-2
Numbers only, in ×10⁻⁶ cm/s.

Here is how some molecules turned out for Papp A→B at 90 min.
structurenotation=CNc1nc(N)nc2c1ncn2[C@@H]1O[C@H](COC(=O)C(C)C)[C@@H](OC(=O)CC(C)C)[C@@]1(C)F measurementname="Papp A→B at 90 min" resultnumber=11
structurenotation=CCC(=O)O[C@H]1[C@@H](O)[C@](C#N)(c2ccc3c(NC(=O)OCOC(C)=O)ncnn23)O[C@@H]1COC(=O)[C@@H](N)C(C)C measurementname="Papp A→B at 90 min" resultnumber=1.8

Record `CC(C)C(=O)O[C@H]1[C@@H](O)[C@](C#N)(c2ccc3c(N)ncnn23)O[C@@H]1COC(=O)[C@@H](N)C(C)C` , field Papp A→B at 90 min: 0.22

----------
For each record, write down the corresponding Papp B→A at 90 min.
measurementDescription: in vitro
Type: in vitro ADME
testParameters: human, Caco-2
One number for each entry, in ×10⁻⁶ cm/s.

Here is how some compounds turned out for Papp B→A at 90 min.
compound="N#C[C@@]1(c2ccc3c(N)ncnn23)O[C@H](COC(=O)CC2CCC(C(F)(F)F)CC2)[C@@H](OC(=O)CC2CCC(C(F)(F)F)CC2)[C@H]1O (stereo partly shown)" resultnumber=0.52
compound=CC(C)CC(=O)OC[C@H]1O[C@@](C#N)(c2ccc3c(N)ncnn23)[C@H](O)[C@@H]1OC(=O)CC1CCCCC1 resultnumber=8.8
compound=CC(C)CC(=O)OC[C@H]1O[C@@](C#N)(c2ccc3c(NC(=O)[C@@H](N)Cc4ccc(F)cc4)ncnn23)[C@H](O)[C@@H]1O resultnumber=13

Batch: Papp B→A at 90 min for all items listed.
1. CNc1nc(N)nc2c1ncn2[C@@H]1O[C@H](COC(=O)C(C)C)[C@@H](OC(=O)CC2CCCCC2)[C@@]1(C)F
2. CC(C)CC(=O)OC[C@H]1O[C@@](C#N)(c2ccc3c(N)ncnn23)[C@H](O)[C@@H]1O
3. CC(=O)Nc1ncnn2c([C@]3(C#N)O[C@H](COC(=O)[C@@H](N)C(C)(C)C)[C@@H](OC(=O)CC4CCCCC4)[C@H]3O)ccc12
4. N#C[C@@]1(c2ccc3c(N)ncnn23)O[C@H](COC(=O)CC23CC4CC(CC(C4)C2)C3)[C@@H](O)[C@H]1O

[out]
[1.1, 4.7, 29, 19]

Batch: Papp B→A at 90 min for all items listed.
1. CC(=O)OC[C@H]1O[C@@](C#N)(c2ccc3c(N)ncnn23)[C@H](O)[C@@H]1OCOC(=O)C(C)(C)C
2. C[C@@H](C(=O)OC[C@H]1O[C@@](C#N)(c2ccc3c(N)ncnn23)[C@H](O)[C@@H]1O)C1CCCCC1
3. CC(C)[C@H](N)C(=O)Nc1ncnn2c([C@]3(C#N)O[C@H](CO)[C@@H](OC(=O)[C@@H](N)C(C)C)[C@H]3O)ccc12
4. N#C[C@@]1(c2ccc3c(NC(=O)[C@@H](N)Cc4ccc(F)cc4)ncnn23)O[C@H](CO)[C@@H](OC(=O)CC2CCCCC2)[C@H]1O
5. CCC(=O)O[C@H]1[C@@H](O)[C@](C#N)(c2ccc3c(NC(=O)OCOC(C)=O)ncnn23)O[C@@H]1COC(=O)[C@@H](N)C(C)C
6. CNc1nc(NC(=O)CC(C)C)nc2c1ncn2[C@@H]1O[C@H](COC(C)=O)[C@@H](OC(=O)CC(C)C)[C@@]1(C)F

[out]
1. 4
2. 16
3. 0.02
4. 2.7
5. 2
6. 2.6
